Origin of values: patent US20240270821A1

Biological target: hGLP-1R (Homo sapiens, UniProt P43220)
Sequence (P43220 24-463): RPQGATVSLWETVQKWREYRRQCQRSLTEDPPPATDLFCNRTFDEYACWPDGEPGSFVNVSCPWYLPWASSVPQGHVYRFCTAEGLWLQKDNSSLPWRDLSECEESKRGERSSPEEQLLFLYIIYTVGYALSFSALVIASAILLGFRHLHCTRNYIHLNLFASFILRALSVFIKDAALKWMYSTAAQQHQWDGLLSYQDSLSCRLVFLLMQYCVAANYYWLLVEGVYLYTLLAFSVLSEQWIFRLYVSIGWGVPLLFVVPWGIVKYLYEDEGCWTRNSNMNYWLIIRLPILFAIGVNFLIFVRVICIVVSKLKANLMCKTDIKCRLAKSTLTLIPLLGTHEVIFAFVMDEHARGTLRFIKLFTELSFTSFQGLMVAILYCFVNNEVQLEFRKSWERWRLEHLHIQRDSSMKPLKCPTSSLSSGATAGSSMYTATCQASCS
Experiment: cell-based or functional assay
Starred links: 1 amine or outer side, 2 acyl side, 3 side chain; linkers in the order of their positions; H or OH if unused. Non-standard residues stand in square brackets, D forms with d. Groups on a side chain read outwards from the residue. No end group written: not given here. *: point of attachment. C20 diacid = O=C(O)CCCCCCCCCCCCCCCCCCC(=O)*; γGlu = O=C(O)[C@H](CCC(=O)[*:2])N[*:1]; αMeL = CC(C)C[C@](C)(N)C(=O)O; AEEA = NCCOCCOCC(=O)O; Aib = CC(C)(N)C(=O)O
A collection of binders and their measured Relative cAMP EC50
Supply the numeric figure in nM, leaving out any unit text.

Exercise: Give me measured Relative cAMP EC50, please, for this binder: Y[Aib]QGTFTSDYSI[αMeL]LDKQAAK([AEEA-AEEA-γGlu-C20 diacid])QFVEWLIA[Aib]GPSSGEPPPSEG-NH2 [Example 326]
Key: 0.555

More entries:
Exercise: Please give the documented Relative cAMP EC50 of YXQGTFTSDFSKXLDKKAQXAFIEYLLAGGPSSGAPPPSSG (Aib, αMeL, acylated K, C-terminal amide; synthetic construct; SITE 2: note = 2-Aminoisobutyric Acid; SITE 13: note = alpha-methyl-leucine; SITE 17: note = Lysine is chemically modified through conjugation of the epsilon-amino group of the Lysine side chain with (2-[2-(2-Amino-ethoxy)-ethoxy]-acetyl)-(gamma-Glu)-CO-(CH2) 18-CO2H; SITE 20: n) [Example 13]
Key: 1.78

Exercise: Supply recorded Relative cAMP EC50 for YXQGTXTSDYSIXLDXKAQXAFIEYLLEGGPSSGAPPPSEG (synthetic construct; SITE 2: note = 2-Aminoisobutyric Acid; SITE 6: note = alpha-methyl-2-fluoro-L-phenylalanine; SITE 13: note = alpha-methyl-leucine; SITE 16: note = L-ornithine; SITE 17: note = Lysine is chemically modified through conjugation of the epsilon-amino group of the Lysine side chain w) [Example 404] here.
Key: 0.217

Exercise: Read off the recorded Relative cAMP EC50 for YXQGTFTSDFSXXLDKKAQXAFIEYLIEXSPSSGAPPPSGS (synthetic construct; SITE 2: note = 2-Aminoisobutyric Acid; SITE 12: note = L-ornithine; SITE 13: note = alpha-methyl-leucine; SITE 17: note = Lysine is chemically modified through conjugation of the epsilon-amino group of the Lysine side chain with (2-[2-(2-Amino-ethoxy)-ethoxy]-acetyl)-(gamma-Glu)) [Example 804]
Key: 0.915

Exercise: Tell me Relative cAMP EC50 reported for YXQGTFTSDFSKXLDKKAQXAFIEYLLEAGPSSGAPPPGEG (not fully specified; Aib, αMeL; acylated Lys; C-terminal amide; synthetic construct; SITE 2: note = 2-Aminoisobutyric Acid; SITE 13: note = alpha-methyl-leucine; SITE 17: note = Lysine is chemically modified through conjugation of the epsilon-amino group of the Lysine side chain with (2-[2-(2-Amino-ethoxy)-ethoxy]-acetyl)-(gamma-Glu)-CO-(CH2) 18-CO2H; SITE 20: n) [Example 34]
Key: 1.16

Exercise: Kindly indicate its recorded Relative cAMP EC50. Item: YXQGTXTSDXXIXLDXKAQXSFIEXLIEGGPSSGEPPPE (synthetic construct; SITE 2: note = 2-Aminoisobutyric Acid; SITE 6: note = alpha-methyl-2-fluoro-L-phenylalanine; SITE 10: note = 3-(4-Pyridyl)-L-alanine; SITE 11: note = alpha-methyl-L-serine; SITE 13: note = alpha-methyl-leucine; SITE 16: note = L-ornithine; SITE 17: note = Lysine is chemically mo) [Example 436]
Key: 0.173
